All values here come from ChEMBL document CHEMBL1121615.

species on record: Mus musculus; assay: animal or person; type: functional
Description: The ED50 value of compound was measured for 50% inhibition for analgesia in mice by the hotplate method
Readout Type: log10(ED50) (log10 of the value in mg/kg)
Please keep in mind that the values are log10 of ED50 expressed in mg/kg.

Some molecules with known log10(ED50) results, for comparison:
In: Look up log10(ED50): CN1CCC2(CCCc3ccccc32)C1.Cl (stereo unspecified)
Out: 1.08

In: And for COc1cccc2c1CCCC21CCNC1 (stereo unspecified) ?
Out: 1.69

In: And for Cl.c1ccc2c(c1)CCCC21CCNC1 (stereo unspecified) ?
Out: 1.12

In: And for CN1CC[C@]23c4c5ccc(O)c4O[C@H]2[C@@H](O)C=C[C@H]3[C@H]1C5.Cl [MORPHINE HYDROCHLORIDE] ?
Out: 0.08

// next item, log10(ED50) requested
In: Look up log10(ED50): Br.CN1CCC2(CCCc3ccc(O)cc32)C1 (stereo unspecified)
Out: 1.63
